- Assayed System: T1, human VEGF-A residues 27-191 of Accession #AAV38412 (human, UniProt P15692 27-191)
- T1 construct: range 27-191
- T1 sequence (P15692 other isoform, or with tags, fused parts or gaps limits assumed): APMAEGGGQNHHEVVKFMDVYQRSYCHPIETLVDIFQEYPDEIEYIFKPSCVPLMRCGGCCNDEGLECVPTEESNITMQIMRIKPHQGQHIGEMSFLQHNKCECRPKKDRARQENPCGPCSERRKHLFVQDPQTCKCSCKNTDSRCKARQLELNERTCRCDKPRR
- Test Details: BIAcore SPR
Measured Attribute: kon (M⁻¹ s⁻¹)
Give the number; M⁻¹ s⁻¹ is assumed, so skip it.

• T28 Y (anti-VEGF IgG) (antibody, V domains shown, copies: 2 + 2) VH: EVQLVESGGGLVQPGGSLRLSCAASGYYFTNYGMNWVRQAPGKGLEWVGWINTYTGEPTYAADFKRRFTFSLDTSKSTAYLQMNSLRAEDTAVYYCAKYPHYYGSSHWYFDVWGQGTLVTVSS VL: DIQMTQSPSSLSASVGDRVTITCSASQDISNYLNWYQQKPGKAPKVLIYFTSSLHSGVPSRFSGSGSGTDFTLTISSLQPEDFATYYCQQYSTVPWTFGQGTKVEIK = 122000
• S100a A (anti-VEGF IgG) (antibody, V domains shown, copies: 2 + 2) VH: EVQLVESGGGLVQPGGSLRLSCAASGYTFTNYGMNWVRQAPGKGLEWVGWINTYTGEPTYAADFKRRFTFSLDTSKSTAYLQMNSLRAEDTAVYYCAKYPHYYGASHWYFDVWGQGTLVTVSS VL: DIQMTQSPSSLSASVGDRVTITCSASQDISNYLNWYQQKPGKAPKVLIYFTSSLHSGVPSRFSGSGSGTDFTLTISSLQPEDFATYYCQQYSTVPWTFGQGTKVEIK = 228000

# context switch: different binder, same kon
Documented kon of T30 W (anti-VEGF IgG) (antibody, V domains shown, copies: 2 + 2) VH: EVQLVESGGGLVQPGGSLRLSCAASGYTFWNYGMNWVRQAPGKGLEWVGWINTYTGEPTYAADFKRRFTFSLDTSKSTAYLQMNSLRAEDTAVYYCAKYPHYYGSSHWYFDVWGQGTLVTVSS VL: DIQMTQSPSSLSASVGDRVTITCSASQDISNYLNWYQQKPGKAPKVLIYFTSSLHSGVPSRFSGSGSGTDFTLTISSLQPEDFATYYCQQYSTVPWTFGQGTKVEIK : 186000
